Would you mind telling me the reported IC50 of each entry?
Tested on: LS174T
Experiment: CCK-8 proliferation, LS174T
Assay type: cell-based
Settings: Homo sapiens, read-out: Inhibitory activity (IC50) on tumor cell proliferation, LS174T
Description: IC50 values of the compounds of the present disclosure (including the compounds in Table 1, and compounds of examples) were measured using the Meilun Cell Counting Kit-8 kit from Dalian Meilun Biotech Co., Ltd. Assay details are as follows: tumor cells were seeded in a 96-well plate at a density listed in Table A2. […]

COMPOUND	EXPERIMENTAL_VALUE
CC1(C)CCC(CN2CCN(c3ccc(C(=O)NS(=O)(=O)c4ccc(NCC5CCOCC5)c([N+](=O)[O-])c4)c(Oc4cnc5[nH]ccc5c4)c3)CC2)=C(c2ccc(Cl)cc2)C1 [ABT-199, Venetoclax, reference compound]	> 10000 nM
CC1(C)CCC(c2ccc(Cl)cc2)=C(CN2CCN(c3ccc(C(=O)NS(=O)(=O)c4ccc(N[C@H](CCN5CCN(Cc6ccc(C7CCC(=O)NC7=O)c(F)c6)CC5)CSc5ccccc5)c(S(=O)(=O)C(F)(F)F)c4)cc3)CC2)C1 (stereo partly drawn)	50 to 100 nM
CC1(C)CCC(c2ccc(Cl)cc2)=C(CN2CCN(c3ccc(C(=O)NS(=O)(=O)c4ccc(N[C@H](CCN5CCN(Cc6ccc(C7CCC(=O)NC7=O)cc6)CC5)CSc5ccccc5)c(S(=O)(=O)C(F)(F)F)c4)cc3)CC2)C1 (stereo partly drawn)	50 to 100 nM
CC1(C)CCC(c2ccc(Cl)cc2)=C(CN2CCN(c3ccc(C(=O)NS(=O)(=O)c4ccc(N[C@H](CCN5CCN(Cc6cccc(NC7CCC(=O)NC7=O)c6)CC5)CSc5ccccc5)c(S(=O)(=O)C(F)(F)F)c4)cc3)CC2)C1 (stereo partly drawn)	100 to 500 nM
CC1(C)CCC(c2ccc(Cl)cc2)=C(CN2CCN(c3ccc(C(=O)NS(=O)(=O)c4ccc(N[C@H](CCN5CCOCC5)CSc5ccccc5)c(S(=O)(=O)C(F)(F)F)c4)cc3)CC2)C1 [ABT-263, Navitoclax, reference compound]	500 to 1000 nM

Shifting focus to the compound that follows.
Quote IC50 reported for CC1(C)CCC(c2ccc(Cl)cc2)=C(CN2CCN(c3ccc(C(=O)NS(=O)(=O)c4ccc(N[C@H](CCN5CCN(Cc6cccc(N7CCC(=O)NC7=O)c6)CC5)CSc5ccccc5)c(S(=O)(=O)C(F)(F)F)c4)cc3)CC2)C1 please.
500 to 1000 nM
